assay: MDCK permeability assay; assay type: in vitro ADME; details: dog, MDCK; B-A, pH 7.4
recordedMetric: Papp B→A at 90 min

molecule="COc1cc2c(cc1Nc1ncc(Cl)c(N3CC(C)(CC(=O)O)c4ccc(F)cc43)n1)CN(C)CC2 (centres unmarked) [Compound 10, reference compound]" reported="58.9 ×10⁻⁶ cm/s"
molecule="COc1cc2c(cc1Nc1ncc(Cl)c(N3CC(C(=O)O)c4ccccc43)n1)CN(C)CC2 (centres unmarked) [Compound 7, reference compound]" reported="9.4 ×10⁻⁶ cm/s"
molecule="COc1cc2c(cc1Nc1ncc(Cl)c(N3CC(CC(=O)O)c4ccccc43)n1)CN(C)CC2 (centres unmarked) [Compound 8, reference compound]" reported="38.5 ×10⁻⁶ cm/s"
molecule="COc1cc2c(cc1Nc1ncc(Cl)c(N3CC(C)(CC(=O)O)c4ccccc43)n1)CN(C)CC2 (centres unmarked)" reported="47.8 ×10⁻⁶ cm/s"
molecule="CN1CCc2cc(F)c(Nc3ncc(Cl)c(N4CC(C)(CC(=O)O)c5ccccc54)n3)cc2C1 (centres unmarked)" reported="41.1 ×10⁻⁶ cm/s"
